In this section we review reported logP values for a set of compounds.
procedure.text: Lipophilicity, log P of the compound
Type: physicochemical
experimental.setup: octanol/water
endpoint: logP

1) O=C(c1ccccc1)c1ccc(OS(=O)(=O)c2cc(Cl)cc(Cl)c2O)cc1: 3.1
2) O=C(c1ccccc1)c1ccc(NS(=O)(=O)c2ccc(Cl)cc2Cl)cc1: 3.5
3) O=S(=O)(Nc1ccc2c(c1)Cc1ccccc1-2)c1ccc(Cl)cc1Cl: 4.1
